These entries and their values trace back to paper PMC5442318.

# Tested on: P. falciparum stage V female gametocytes
# assay_comment: P. falciparum female gametocyte activation assay (Pf FGAA), 24 h or 48 h preincubation, Pfs25 expression readout
# Format: cell-based, Plasmodium falciparum NF54
# run_conditions: 24h incubation time; read-out: Pf FGAA IC50 (µM) 24h
measurement_kind: IC50 (µM)

Below, 5 compounds whose answers are already recorded.
compound | unit_name | IC50
CCCCCCCN1CC[C@@H](CCCc2ccnc3ccc(OC)cc23)[C@@H](CNC)C1.O=C(O)C(=O)O | µM | 1.86
CC(C)(C)c1ccc(CNCCOc2ccc(Nc3nnc(-c4ccc(-c5ncc[nH]5)cc4)o3)c3ccccc23)cc1.O=C(O)C(F)(F)F | µM | 3.03
CN1CCN(c2cc3c(cc2Cl)CCN3C(=O)Nc2ccc(NC(=O)c3ccc(C(F)(F)F)cc3)cc2)CC1.Cl | µM | 1.54
CC(C)(CN)c1nc(-c2ccc(Br)c(O)c2)c(-c2ccncc2)[nH]1.Cl | µM | 0.79
O=C(O)C(F)(F)F.O=S(=O)(NCCN1CCCC1)c1ccc(-c2cccc(CNC3Cc4ccccc4C3)c2)s1 | µM | 5.37

I. CNCCCNCc1ccc(-c2ccc(F)c(Cl)c2)o1.Cl
II. Cc1ccc(C(C(=O)Nc2ccc(N3CCNCC3)c(Cl)c2)c2ccccc2)cc1 (stereo not shown)
[in] Which record would sort first by descending IC50, I or II ? Kindly state the label of the option you pick.
[out] II
